Entries and their measured pest or weed control at 1000 g/ha follow.
Test system: Amaranthus retroflexus (AMARE)
Assay Name: Post-emergence biological efficacy, glasshouse pot test
Type: in vivo
Experimental Conditions: 312 h, 1,000 g/ha, post-emergence (sprayed after 8 days), evaluated after 13 days, 100=total damage, 0=no damage, read-out: Percentage damage caused to weed species, post-emergence, AMARE
Description: Seeds of Alopecurus myosuroides (ALOMY), Setaria faberi (SETFA), Echinochloa crus-galli (ECHCG), Solanum nigrum (SOLNI), Amaranthus retroflexus (AMARE) and Ipomoea hederaceae (IPOHE) were sown in standard soil in pots. […] The test plants were then grown on under controlled conditions in a glasshouse (at 24/16° C., day/night; 14 hours light; 65% humidity) and watered twice daily. After 13 days the test was evaluated (100=total damage to plant; 0=no damage to plant).

- Compound: "C=Cc1c(C(=O)OC)nc(Cl)c(Cl)c1N"
  Measured On: "Amaranthus retroflexus (AMARE)"
  Value Unit: "%"
  pest or weed control at 1000 g/ha: 100
- Compound: "C=Cc1c(N2CCCC2)cc(Cl)nc1C(=O)OC"
  Measured On: "Amaranthus retroflexus (AMARE)"
  Value Unit: "%"
  pest or weed control at 1000 g/ha: 90
- Compound: "COC(=O)c1nc(Cl)cc(N)c1C=C(C)C"
  Measured On: "Amaranthus retroflexus (AMARE)"
  Value Unit: "%"
  pest or weed control at 1000 g/ha: 100
- Compound: "C/C=C/c1c(N)cc(Cl)nc1C(=O)OC [2-5 (E isomer)]"
  Measured On: "Amaranthus retroflexus (AMARE)"
  Value Unit: "%"
  pest or weed control at 1000 g/ha: 100
- Compound: "C=C(C)Cc1c(N)cc(Cl)nc1C(=O)OC"
  Measured On: "Amaranthus retroflexus (AMARE)"
  Value Unit: "%"
  pest or weed control at 1000 g/ha: 70
- Compound: "COC(=O)c1nc(Cl)cc(N)c1-c1ccc(Cl)cc1"
  Measured On: "Amaranthus retroflexus (AMARE)"
  Value Unit: "%"
  pest or weed control at 1000 g/ha: 100
- Compound: "C=Cc1c(N)cc(Cl)nc1C(=O)O"
  Measured On: "Amaranthus retroflexus (AMARE)"
  Value Unit: "%"
  pest or weed control at 1000 g/ha: 100
- Compound: "C=CCc1c(N)cc(Cl)nc1C(=O)OC"
  Measured On: "Amaranthus retroflexus (AMARE)"
  Value Unit: "%"
  pest or weed control at 1000 g/ha: 90
- Compound: "C=Cc1c(NCC(C)O)cc(Cl)nc1C(=O)OC (stereo not drawn)"
  Measured On: "Amaranthus retroflexus (AMARE)"
  Value Unit: "%"
  pest or weed control at 1000 g/ha: 100
- Compound: "COC(=O)c1nc(Cl)cc(N)c1C(F)(F)F"
  Measured On: "Amaranthus retroflexus (AMARE)"
  Value Unit: "%"
  pest or weed control at 1000 g/ha: 80
- Compound: "C=Cc1c(N)cc(Cl)nc1C(=O)OC"
  Measured On: "Amaranthus retroflexus (AMARE)"
  Value Unit: "%"
  pest or weed control at 1000 g/ha: 100
- Compound: "C=Cc1c(C(=O)O)nc(Cl)c(F)c1N"
  Measured On: "Amaranthus retroflexus (AMARE)"
  Value Unit: "%"
  pest or weed control at 1000 g/ha: 100
- Compound: "COC(=O)c1nc(Cl)cc(N)c1C"
  Measured On: "Amaranthus retroflexus (AMARE)"
  Value Unit: "%"
  pest or weed control at 1000 g/ha: 100
- Compound: "C=Cc1c(NC2CC2)cc(Cl)nc1C(=O)OC"
  Measured On: "Amaranthus retroflexus (AMARE)"
  Value Unit: "%"
  pest or weed control at 1000 g/ha: 100
- Compound: "C/C=C\\c1c(N)cc(Cl)nc1C(=O)OC [2-5 (Z isomer)]"
  Measured On: "Amaranthus retroflexus (AMARE)"
  Value Unit: "%"
  pest or weed control at 1000 g/ha: 100
- Compound: "C=Cc1c(C(=O)O)nc(Cl)c(Cl)c1N"
  Measured On: "Amaranthus retroflexus (AMARE)"
  Value Unit: "%"
  pest or weed control at 1000 g/ha: 100
- Compound: "C=Cc1c(C(=O)OC)nc(Cl)c(F)c1N"
  Measured On: "Amaranthus retroflexus (AMARE)"
  Value Unit: "%"
  pest or weed control at 1000 g/ha: 100
- Compound: "C=Cc1c(NC2CCCC2)cc(Cl)nc1C(=O)OC"
  Measured On: "Amaranthus retroflexus (AMARE)"
  Value Unit: "%"
  pest or weed control at 1000 g/ha: 100
